Values compiled from PubChem BioAssay AID1963973.

In this section we review reported viability, T/C values for a set of molecules.
# Test system: 883617-216-R-J1-PDC tumor spheroids, viability
# assay-name: Anticancer human tumor 883617-216-R-J1-PDC patient-derived bladder carcinoma cell line growth inhibition [PI3K]
# run-conditions: compound 1 µM; hits give low values; spheroids with HUVEC and MSC
# Text: Combinatorial screen of targeted agents with the PI3K inhibitors inavolisib, alpelisib, duvelisib, and copanlisib in multi-cell type tumor spheroids A high-throughput screen of multi-cell type tumor spheroids was designed to identify active combinations of targeted small molecules and PI3K pathway inhibitors. […] Compounds. […] If the clinical Cmax for an agent had not been determined, the highest concentration tested was 10 microM. […]
readout-label: viability, T/C

[[record]]
molecule = "CC1(C)CCC(Nc2ncc(C(F)(F)F)c(-c3c[nH]c4c(P(C)(C)=O)c(C#N)ccc34)n2)CN1 (stereo not given)"
reported_result = "30% [middle of 4 runs]"

[[record]]
molecule = "CC(Cn1ccc(-c2ccc(C#N)c(Cl)c2)n1)NC(=O)c1cc(C(C)O)[nH]n1 (stereo not given)"
reported_result = "95.5% [middle of 4 runs]"

[[record]]
molecule = "C[C@@H](NC(=O)c1ncnc(N)c1Cl)c1ncc(C(=O)Nc2cc(C(F)(F)F)c(Cl)cn2)s1"
reported_result = "96.5% [middle of 4 runs]"

[[record]]
molecule = "COc1c(OCCCN2CCOCC2)ccc2c3n(c(=NC(=O)c4cnc(N)nc4)nc12)CCN3"
reported_result = "3.24% [middle of 8 runs]"

[[record]]
molecule = "CC(C)NCC(C(=O)N1CCN(c2ncnc3c2C(C)CC3O)CC1)c1ccc(Cl)cc1 (stereo not given)"
reported_result = "40.5% [middle of 4 runs]"


---

# System: 883617-216-R-J1-PDC tumor spheroids, viability
# assay-name: Anticancer human tumor 883617-216-R-J1-PDC cell line growth inhibition [PI3K];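 also: spheroids exposed to agents for 7 days before the viability read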
# run-conditions: second compound 0.316 µM; first compound 0.000316 µM; hits give low values; spheroids with HUVEC and MSC
Flag rule - viability, T/C less than 80% flags met; the remaining entries get not met.

[[record]]
compound = "CC(C)n1nc(-c2ccc3oc(N)nc3c2)c2c(N)ncnc21 + CC(Nc1ncnc2nc[nH]c12)c1cc2cccc(Cl)c2c(=O)n1-c1ccccc1"
qualitative_label = "not met"

[[record]]
compound = "Cn1ncnc1[C@H]1c2n[nH]c(=O)c3cc(F)cc(c23)N[C@@H]1c1ccc(F)cc1 + CC(Nc1ncnc2nc[nH]c12)c1cc2cccc(Cl)c2c(=O)n1-c1ccccc1"
qualitative_label = "not met"

[[record]]
compound = "Cn1ncnc1[C@H]1c2n[nH]c(=O)c3cc(F)cc(c23)N[C@@H]1c1ccc(F)cc1 + CC(Nc1ccc2c(c1)OCCn1cc(N3C(=O)OCC3C(F)F)nc1-2)C(N)=O"
qualitative_label = "met"

[[record]]
compound = "CC(=O)c1c(C)c2cnc(Nc3ccc(N4CCNCC4)cn3)nc2n(C2CCCC2)c1=O + COc1c(OCCCN2CCOCC2)ccc2c3n(c(=NC(=O)c4cnc(N)nc4)nc12)CCN3"
qualitative_label = "met"

[[record]]
compound = "Cn1ncnc1[C@H]1c2n[nH]c(=O)c3cc(F)cc(c23)N[C@@H]1c1ccc(F)cc1 + COc1c(OCCCN2CCOCC2)ccc2c3n(c(=NC(=O)c4cnc(N)nc4)nc12)CCN3"
qualitative_label = "met"

[[record]]
compound = "CC(=O)c1c(C)c2cnc(Nc3ccc(N4CCNCC4)cn3)nc2n(C2CCCC2)c1=O + CC(Nc1ncnc2nc[nH]c12)c1cc2cccc(Cl)c2c(=O)n1-c1ccccc1"
qualitative_label = "not met"

[[record]]
compound = "CC(=O)c1c(C)c2cnc(Nc3ccc(N4CCNCC4)cn3)nc2n(C2CCCC2)c1=O + CC(Nc1ccc2c(c1)OCCn1cc(N3C(=O)OCC3C(F)F)nc1-2)C(N)=O"
qualitative_label = "met"

[[record]]
compound = "CC(C)n1nc(-c2ccc3oc(N)nc3c2)c2c(N)ncnc21 + Cc1nc(NC(=O)N2CCCC2C(N)=O)sc1-c1ccnc(C(C)(C)C(F)(F)F)c1"
qualitative_label = "met"

[[record]]
compound = "CC(=O)c1c(C)c2cnc(Nc3ccc(N4CCNCC4)cn3)nc2n(C2CCCC2)c1=O + Cc1nc(NC(=O)N2CCCC2C(N)=O)sc1-c1ccnc(C(C)(C)C(F)(F)F)c1"
qualitative_label = "met"

